# credit: PubChem BioAssay (NCI)

GI50 listing for selected molecules.
- Test system: HT29 colon
- measurement.description: NCI tumour cell line growth inhibition, 48 h

Worked examples, 3 molecules total:
CC1(C)CCC(CN2CCN(c3ccc(C(=O)NS(=O)(=O)c4ccc(NCC5CCOCC5)c([N+](=O)[O-])c4)c(Oc4cnc5[nH]ccc5c4)c3)CC2)=C(c2ccc(Cl)cc2)C1; 2.49 µM
C/C(=N\NC(=S)Nc1ccccc1)c1ccccn1; 0.0203 µM
OCCC#Cc1ccccc1C#Cc1ccccc1; 18 µM

GET /values?item= C#CCSc1nnnn1-c1ccc(Br)c(C)c1 &system= HT29 colon returns GI50: 30.3 µM

Bench note, HT29 colon: Nc1nccc(C#Cc2cncnc2Nc2ccc(OCc3cccc(F)c3)c(Cl)c2)n1 , GI50 reads 4.57 µM

Record Cn1cc(-c2csc(-c3cn(C)c4ncccc34)n2)c2ccccc21 ; system HT29 colon; GI50 = 0.276 µM

* * *

- System: CAKI-1 renal
- measurement.description: NCI tumour cell line growth inhibition, 48 h
As shown below, each of these compounds has a reported TGI value.

Example entries and their recorded answers appear below.
CC(=O)[CH-]C(=O)c1ccccc1.CC(=O)[CH-]C(=O)c1ccccc1.[O-]Cc1cccs1.[O-]Cc1cccs1.[Ti+4]; > 100 µM
Cc1ccc(NC(=O)CCC(=O)C2CC(=O)CCC2=O)cc1C (stereo not given); > 100 µM
CC(=O)NC1C(OCc2ccccc2)OC(CO)C(O)C1OC(C)C(=O)NC(C(=O)NC(CCC(=O)Nc1ccc2c(c1)CN1C(=O)c3ccccc3C1=N2)C(N)=O)C(C)C (stereo not given); > 100 µM

GET /value?item= Cn1cc(-c2ccc3c(c2)ncn3-c2ccc(CC(=O)Nc3cc(C(C)(C)C)on3)cc2)cn1 &field=TGI returns 2.43 µM

Recorded TGI (compound O=Cc1cc(O)ccc1Br ): 48.1 µM

C#CCSc1nnnn1-c1ccc(Br)c(C)c1 yielded TGI of 17.6 µM

Briefly, TGI measured for Cc1cc(C)c2c(c1C)CN1CN2Cc2c(C)c(C)cc(C)c21 : > 100 µM

In plain terms, CC(C)Cn1cnnc1NS(=O)(=O)c1cc(C(=O)NN)c(Cl)cc1S has a documented TGI of > 10 µM

The compound COC(=O)C(NC(=O)C12CCC(C)(C(=O)O1)C2(C)C)c1cc(C(C)(C)C)c(O)c(C(C)(C)C)c1 (stereo not given) showed TGI equal to > 100 µM

The recorded TGI for CC1C2CC(CC2=O)C1(C)C (stereo not given) is > 100 µM

The compound listed as CC1(C)CCC(CN2CCN(c3ccc(C(=O)NS(=O)(=O)c4ccc(NCC5CCOCC5)c([N+](=O)[O-])c4)c(Oc4cnc5[nH]ccc5c4)c3)CC2)=C(c2ccc(Cl)cc2)C1 shows TGI equal to 10.7 µM

Record COC(=O)C1(c2ccc(OC)cc2)NC(c2ccccc2)C2C(=O)N(c3ccc(OC)cc3)C(=O)C21 (stereo not given) , field TGI: > 100 µM

* * *

Catalogue of TGI values
- Test system: SF-268 CNS
- measurement.description: NCI tumour cell line growth inhibition, 48 h

O=C(c1no[n+]([O-])c1C(=O)c1csc2ccccc12)c1csc2ccccc12; 23.2 µM
O=C(O)Cc1ccccc1; > 2000 µM
CCOC(=O)C1=C(O)CSC1=Nc1ccc(N=C2SCC(O)=C2C(=O)OCC)cc1; 52.4 µM

Measured TGI, c1ccc(CNc2nc(Nc3ccc(-c4nc5ccccc5[nH]4)cc3)c3cn[nH]c3n2)cc1 : 7.1 µM

So, c1ccc2c(-c3ccnc(-c4c[nH]c5ccccc45)n3)c[nH]c2c1 ? Its TGI was > 100 µM

Documented TGI of COc1ccc(/C=N/Nc2nc3ccccc3c(=O)n2-c2ccccc2)cc1 : > 100 µM
